From: patent US7696129B2

Tested on: Common Cutworm (Spodoptera litura)
assay_summary: Test Example 2: insecticidal effect on common cutworm, cabbage leaf immersion
Assay type: in vivo
condition_details: 50 ppm, cabbage leaf immersed about 30 seconds, second-instar larvae, 25° C., eight days after the inoculation
measurement_kind: Test Example 2 (insecticidal effect, mortality criterion)

{"compound": "CSCC(C)(C)NC(=O)c1c(I)cccc1C(=O)Nc1ccc(CC(F)(F)C(F)(F)C(F)(F)F)cc1C", "assay_result": "A (Mortality 100%)"}
{"compound": "Cc1cc(C(C(F)(F)F)C(F)(F)F)ccc1NC(=O)c1cccc([N+](=O)[O-])c1C(=O)NC(C)C", "assay_result": "A (Mortality 100%)"}
{"compound": "CSCC(C)(C)NC(=O)c1c(C(=O)Nc2ccc(C(C(F)(F)F)C(F)(F)F)nc2C)cccc1[N+](=O)[O-]", "assay_result": "C (Mortality 89-80%)"}
{"compound": "C[S+]([O-])CC(C)(C)NC(=O)c1c(I)cccc1C(=O)Nc1ccc(C(C(F)(F)F)C(F)(F)F)nc1Cl (stereo not shown)", "assay_result": "A (Mortality 100%)"}
{"compound": "CC(C)NC(=O)c1c(I)cccc1C(=O)Nc1ccc(C(C(F)(F)F)C(F)(F)F)cc1", "assay_result": "A (Mortality 100%)"}

Entry under test: "CCc1cc(C(C(F)(F)F)C(F)(F)F)ccc1NC(=O)c1cccc(I)c1C(=O)NC(C)(C)CSC" . Its Test Example 2 (insecticidal effect, mortality criterion) was A (Mortality 100%)

Entry under test: "Cc1cc(C(C(F)(F)F)C(F)(F)F)ccc1NC(=O)c1cccc(C(F)(F)F)c1C(=O)NC(C)(C)CS(C)(=O)=O" . Its Test Example 2 (insecticidal effect, mortality criterion) was A (Mortality 100%)

Entry under test: "Cc1cc(C(C(F)(F)F)C(F)(F)F)ccc1NC(=O)c1cccc(I)c1C(=O)NC(C)(C)C" . Its Test Example 2 (insecticidal effect, mortality criterion) was C (Mortality 89-80%)

Entry under test: "CSCC(C)(C)NC(=O)c1c(I)cccc1C(=O)Nc1ccc(CC(F)(F)C(F)(F)F)cc1C" . Its Test Example 2 (insecticidal effect, mortality criterion) was A (Mortality 100%)

Entry under test: "CSCC(C)(C)NC(=O)c1c(Cl)cccc1C(=O)Nc1ccc(C(C(F)(F)F)C(F)(F)F)cc1C" . Its Test Example 2 (insecticidal effect, mortality criterion) was A (Mortality 100%)

Entry under test: CCNC(=O)OCC(C)NC(=O)c1c(I)cccc1C(=O)Nc1ccc(C(C(F)(F)F)C(F)(F)F)cc1C (stereo not shown) . Its Test Example 2 (insecticidal effect, mortality criterion) was A (Mortality 100%)

Entry under test: "CC(C)(CS(C)(=O)=O)NC(=O)c1c(I)cccc1C(=O)Nc1ccc(C(C(F)(F)F)C(F)(F)F)cc1C#N" . Its Test Example 2 (insecticidal effect, mortality criterion) was A (Mortality 100%)

Entry under test: "CCN(CC)C(=O)c1c(I)cccc1C(=O)Nc1ccc(C(C(F)(F)F)C(F)(F)F)cc1C" . Its Test Example 2 (insecticidal effect, mortality criterion) was A (Mortality 100%)
